# protocol_text: PSAC antagonists in infected red cells, primary screen, cell-based, P. falciparum Indochina, OD700, 2 h (AID 1155);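 further: lysis reports solute entry through the parasite surface anion channel PSAC; channel blockers reduce lysis of infected cells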
# condition_details: P. falciparum Indochina infected erythrocytes, osmotic lysis OD700; higher = more signal, called active from +8 up or from −8 down
readout_kind: z-score
Write the value as a bare number.

Summary for this compound, `C[C@@H]1C=CCC(=O)OC[C@H]2O[C@@H](C=C[C@@H]2O)[C@H](C)C=CCC(=O)OC[C@H]2O[C@H]1C=C[C@@H]2O` : z-score is 0.278

Summary for this compound, `CO[C@H]1COC(=O)[C@@H](OCc2ccccc2)C=C[C@H](C)[C@@H](OC)COC(=O)[C@H](OCc2ccccc2)C=C[C@@H]1C` : z-score is -0.952

Summary for this compound, `COCCOC(=O)N1C(=O)[C@@]2(c3cc(C#CCNC(N)=O)ccc31)[C@H](C(=O)N1CCCCCCC1)[C@H]1C(=O)O[C@H](c3ccccc3)[C@H](c3ccccc3)N1[C@@H]2c1ccccc1OCCO` : z-score is 1.53

Summary for this compound, `COC(=O)[C@@]1(Cc2ccc(OC)cc2)[C@H]2c3cc(C(=O)N(C)C)n(Cc4ccc(C)c(F)c4F)c3C[C@H]2CN1C(=O)c1ccccc1` : z-score is -0.0758

Summary for this compound, C=CCC(OC(C)=O)[C@@H]1[C@@H](N(Cc2cc3ccccc3o2)C(=O)c2ccc(C)cc2)c2cc(OCCCO)ccc2N1C(=O)c1ccc2ccccc2n1 (stereo partly drawn) : z-score is 0.345

Summary for this compound, `C=CC[C@]1(C(=O)N2CCCCC2)N=C(c2ccc(OCCCO)cc2)O[C@H]1c1ccccc1N=[N+]=[N-]` : z-score is 31.6

Summary for this compound, `C[N+](C)(C)CCCCNC(=O)[C@@H]1C[C@@H]2C(=O)N3CCC[C@H]3C(=O)N2[C@@H]1c1cccc(OCCO)c1` : z-score is -0.732

Summary for this compound, `[N-]=[N+]=NCc1ccccc1C[C@@]1(C(=O)N2CCOCC2)N=C(c2ccc(OCCCO)cc2)O[C@@H]1c1ccccc1N=[N+]=[N-]` : z-score is 27.7

* * *

# protocol_text: CREB reporter modulators without forskolin, primary screen, cell-based, PC12, CRE-LacZ reporter, unstimulated (AID 1145)
# condition_details: no forskolin, luminescence, 4.5 h, higher = more signal, called active from +8 up or from −8 down
Please respond with reported z-score for every item in the list.
Write the value as a bare number.

Summary for this compound, `COc1ccc([Si](C)(C)[C@H]2[C@H](CCO)O[C@@]3(C(=O)N(Cc4ccc(N5CCCCC5=O)cc4)c4ccccc43)[C@@H]2C)cc1` : z-score is 1.98

Summary for this compound, CN1C(=O)C2C=CC(C(O)C3CC=CCC3)N(Nc3ccccc3)C2C1=O (stereo unspecified) : z-score is -0.333

Summary for this compound, C=C(C)[C@@H]1CC=C(C(O)C2C=CC3C(=O)NC(=O)C3N2Nc2ccccn2)CC1 (stereo partly specified) : z-score is -0.14

Summary for this compound, `CCCN1C(=O)[C@@]2(CCS(=O)(=O)c3ccccc3)N=C(c3ccc(OCCCO)cc3)O[C@H]2c2ccccc21` : z-score is 0.997

Summary for this compound, `Cc1ccc([C@@H]2CC=C(C(=O)O)[C@H](c3ccccc3)N2S(=O)(=O)c2ccc(C)cc2)cc1` : z-score is 0.332

Summary for this compound, C[C@H]1NC(=O)[C@@H](C)NC(=O)[C@@]23C(=O)N[C@@H](Cc4ccccc4)C2[C@H](C)[C@@]2(C)O[C@H]2C3/C=C/C/C=C\CNC1=O (stereo partly specified) : z-score is 3.4

Summary for this compound, O=C1OCCC=C[C@H]2OC34C=CCN(Cc5ccccc5)C(=O)[C@H]3N(CCO)C(=O)[C@@H]4C12 (stereo partly specified) : z-score is -0.899

Summary for this compound, `CO[C@H]1COC(=O)[C@@H](Cc2ccccc2)NC(=O)[C@@H](C)COC(=O)CC=C[C@@H]1C` : z-score is 8.02

Summary for this compound, `O=C1O[C@H](c2ccccc2)[C@H](c2ccccc2)N2[C@H]1[C@@H](C(=O)Nc1nc3ccccc3s1)[C@]1(C(=O)Nc3ccc(C#CC4(O)CCCCCC4)cc31)[C@H]2c1ccc(O)cc1` : z-score is 0.802

Summary for this compound, `CCN1C(C)=C(C(=O)OC)[C@@H](c2ccccc2)N2C(=O)[C@@]3(C(=O)OC)O[C@@]12[C@@H]1C(=O)N(C)C(=O)[C@@H]13` : z-score is 0.922

Summary for this compound, `C[N+](C)(C)CCCCNC(=O)[C@@H]1C[C@@H]2C(=O)N3CCC[C@H]3C(=O)N2[C@@H]1c1cccc(OCCO)c1` : z-score is -0.671
